Molecular target: human SCD1 (Homo sapiens, UniProt O00767)
Construct: expressed in transfected cells; host or cells: yeast strain with OLE1 deleted, plasmid-borne human SCD1 (selected in SD-Ura)
Sequence (O00767 1-359): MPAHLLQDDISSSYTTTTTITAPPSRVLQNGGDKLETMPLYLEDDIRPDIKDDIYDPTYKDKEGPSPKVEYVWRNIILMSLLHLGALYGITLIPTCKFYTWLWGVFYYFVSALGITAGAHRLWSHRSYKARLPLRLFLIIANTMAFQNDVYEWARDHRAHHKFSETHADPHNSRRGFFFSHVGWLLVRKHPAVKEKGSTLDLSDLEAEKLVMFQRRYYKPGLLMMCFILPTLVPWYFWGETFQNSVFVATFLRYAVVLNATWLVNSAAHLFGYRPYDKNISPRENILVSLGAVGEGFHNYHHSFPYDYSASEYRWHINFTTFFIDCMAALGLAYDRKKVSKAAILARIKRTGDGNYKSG
Test: Growth inhibition of yeast strain expressing human SCD1 as sole desaturase (OLE1 deleted), OD600 readout
Type: cell-based
Conditions: yeast strain expressing human SCD1 as sole desaturase; growth (OD600) after 40 h at 30° C.; read-out: SCD1 IC50
Property Name: pIC50
// pIC50 here means minus log10 of the molar concentration (mol/L)

query: # pIC50 lookup, item Cn1ccc(C(=O)Nc2ccc(Cc3cccc(F)c3)cn2)cc1=O
result: 5.36

query: // query pIC50 value for entry Cc1cc(C(=O)Nc2ccc(Cc3cccc(F)c3)cn2)cn(C)c1=O
result: 6.63

query: Need pIC50 of CN1N=C(C(=O)Nc2ccc(CCc3cccc(Cl)c3)nn2)CCC1=O , thanks.
result: 5.19

query: Fill in: pIC50 of Cn1ccc(C(=O)Nc2ccc(Cc3ccc(F)c(F)c3)cn2)n1 [Compound 92] is ___
result: 6.96

query: Name the recorded pIC50 for Cn1cc(C(=O)Nc2ccc(Oc3ccc(F)c(Cl)c3)cn2)ccc1=O .
result: 4.59

query: I'd like to know its pIC50. The compound in question is Cn1nc(C(=O)Nc2nnc(Cc3cc(F)cc(Cl)c3)s2)ccc1=O
result: 6.47

query: Recorded pIC50 of CC(O)c1ccc(C(=O)Nc2ccc(Cc3cc(F)cc(F)c3)cn2)cn1 (centres unmarked) , please.
result: 6.11

query: Give its pIC50 value. Item: O=C(Nc1ccc(Cc2cc(F)cc(F)c2)cn1)c1ccncc1
result: 7.05

query: Fill blank: measured pIC50 of the compound Cn1nc(C(=O)Nc2ccc(Cc3cc(F)c(F)c(Cl)c3)cn2)ccc1=O is ____.
result: 7.22

query: Would you mind telling me what pIC50 value was observed for Cn1cc(NC(=O)c2ccc(Cc3cccc(Cl)c3)cn2)ccc1=O ?
result: 6.25

query: Form field: reported pIC50 of Cc1nccc(C(=O)Nc2ccc(Cc3cccc(F)c3)cn2)n1
result: 8.00

query: Entry Cn1cc(C(=O)Nc2ccc(C3(c4ccc(F)c(F)c4)CC3)cn2)ccc1=O has what pIC50?
result: 5.03

###

Biological target: human SCD1 (Homo sapiens, UniProt O00767)
Construct: expressed in transfected cells; host or cells: yeast strain with OLE1 deleted, plasmid-borne human SCD1 (selected in SD-Ura)
Test: Growth inhibition of yeast strain expressing human SCD1 as sole desaturase (OLE1 deleted), OD600 readout
Assay type: cell-based
Conditions: yeast strain expressing human SCD1 as sole desaturase; growth (OD600) after 40 h at 30° C.; read-out: SCD1 IC50
pIC50: −log10 of the molar value.
For each record, write down the corresponding pIC50.

query: Name the recorded pIC50 for Cc1nccc(NC(=O)c2ccc(Cc3cccc(F)c3)cn2)n1 [Compound 115] .
result: < 4.35

query: Given the entry Cn1cc(C(=O)Nc2nnc(Cc3ccc(F)cc3)s2)ccc1=O [Compound 473] , report its measured pIC50.
result: < 4.35

query: So what's the measured pIC50 for this one? Cc1nnc2ccc(C(=O)Nc3ccc(Cc4cccc(F)c4)cn3)cn12 [Compound 152]
result: < 4.35

###

I'd appreciate it if you could supply pIC50 values for the items below.
Target: human SCD1 (Homo sapiens, UniProt O00767)
Construct: expressed in transfected cells; host or cells: yeast strain with OLE1 deleted, plasmid-borne human SCD1 (selected in SD-Ura)
Assay: Growth inhibition of yeast strain expressing human SCD1 as sole desaturase (OLE1 deleted), OD600 readout
Format: cell-based
Settings: yeast strain expressing human SCD1 as sole desaturase; growth (OD600) after 40 h at 30° C.; read-out: SCD1 IC50
API: returns pIC50 as number; meaning -log10 of concentration in mol/L.

query: May I ask what pIC50 has been recorded for CCO/C=C/c1ccc(C(=O)Nc2ccc(Cc3cccc(Cl)c3)cn2)cn1 [Compound 318] ?
result: 6.89

query: Looking for the measured pIC50 of CN1N=C(C(=O)Nc2ncc(Cc3ccc(F)cc3F)s2)CCC1=O [Compound 234] , can you help?
result: 5.20

query: // query pIC50 value for entry Cn1cc(C(=O)Nc2ccc(Cc3cccc(Cl)c3)cn2)ccc1=O [Example 48]
result: 6.82

query: Please report the recorded pIC50 for Cn1cc(C(=O)Nc2ccc(Cc3cccc(Cl)c3)cn2)cn1 [Compound 94] .
result: 7.52

query: For the molecule shown here, O=C(Nc1ncc(Br)cn1)c1ccc(Cc2cccc(F)c2)cn1 [Compound 631] , give the reported pIC50.
result: 6.19

query: Given Cn1nc(C(=O)Nc2ccc(Cc3cccc(Cl)c3)cn2)ccc1=O [Example 47] , state its recorded pIC50.
result: 5.96

query: Fill blank: measured pIC50 of the molecule Cn1nc(C(=O)Nc2ccc(CNc3cccc(Cl)c3)cn2)ccc1=O [Compound 174] is ____.
result: 5.12

query: pIC50 lookup needed for N#Cc1cnc(C(=O)Nc2ccc(Cc3ccc(F)c(F)c3)cn2)cn1 [Compound 591] , thanks.
result: 5.66

query: For the molecule CCc1cc(C(=O)Nc2ccc(Cc3cccc(F)c3)cn2)nn(C)c1=O [Compound 531] , what pIC50 is on record?
result: 5.89

query: // lookup pIC50 for CN1N=C(C(=O)Nc2ncc(N(C)c3cccc(F)c3)s2)CCC1=O [Compound 237]
result: 5.14

query: Item O=C(Nc1ccc(Cc2cccc(Cl)c2)cn1)c1ccc2nncn2c1 [Compound 146] has what recorded pIC50?
result: 6.72

query: Need pIC50 of Cn1cc(C(=O)Nc2ccc(Cc3cccc(Cl)c3)cn2)cnc1=O [Compound 652] , thanks.
result: 5.72

###

Target: human SCD1 (Homo sapiens, UniProt O00767)
Construct: expressed in transfected cells; host or cells: yeast strain with OLE1 deleted, plasmid-borne human SCD1 (selected in SD-Ura)
Assay: Growth inhibition of yeast strain expressing human SCD1 as sole desaturase (OLE1 deleted), OD600 readout
Type: cell-based
Conditions: yeast strain expressing human SCD1 as sole desaturase; growth (OD600) after 40 h at 30° C.; read-out: SCD1 IC50
Answer each item with its documented IC50.

query: For the molecule Cn1nc(C(=O)Nc2ccc(Cc3cc(F)cc(Cl)c3)nn2)ccc1=O , what IC50 is on record?
result: > 45 µM

query: Bench note: what IC50 did N#Cc1cnc(C(=O)Nc2ccc(Cc3cccc(F)c3)cn2)nc1 show?
result: > 45 µM

query: Quick check: IC50 of Cc1nc(C(=O)Nc2ccc(Cc3cccc(F)c3)cn2)ccc1F ?
result: > 45 µM

query: Endpoint output: IC50 of Cn1nc(C(=O)Nc2ccc(Cc3ccc(C(F)(F)F)cc3)cn2)ccc1=O . Value?
result: > 45 µM

query: Please look up its IC50: Cn1cc(NCc2ccc(Cc3cccc(F)c3)cn2)ccc1=O
result: > 45 µM

###

Molecular target: human SCD1 (Homo sapiens, UniProt O00767)
Construct: expressed in transfected cells; host or cells: yeast strain with OLE1 deleted, plasmid-borne human SCD1 (selected in SD-Ura)
Assay: Growth inhibition of yeast strain expressing human SCD1 as sole desaturase (OLE1 deleted), OD600 readout
Type: cell-based
Settings: yeast strain expressing human SCD1 as sole desaturase; growth (OD600) after 40 h at 30° C.; read-out: SCD1 IC50
Property Name: IC50

query: # query: IC50 of entry Cn1nc(C(=O)Nc2ccc(Cc3cncc(Cl)c3)cn2)ccc1=O
result: > 45 µM

query: Form field: reported IC50 of CCn1cc(C(=O)Nc2ccc(Cc3cccc(F)c3)nn2)ccc1=O
result: > 45 µM

query: What value of IC50 has been recorded for this entry: O=C(Nc1ccc(Cc2ccc(F)cc2)cn1)c1ccc(CO)nc1
result: 0.01 µM

###

Give measured IC50 for each item. Keep answers brief.
Target: human SCD5 (Homo sapiens)
Construct: expressed in transfected cells; host or cells: yeast strain with OLE1 deleted, plasmid-borne human SCD5 (selected in SD-Ura)
Sequence (Q86SK9 whole entry): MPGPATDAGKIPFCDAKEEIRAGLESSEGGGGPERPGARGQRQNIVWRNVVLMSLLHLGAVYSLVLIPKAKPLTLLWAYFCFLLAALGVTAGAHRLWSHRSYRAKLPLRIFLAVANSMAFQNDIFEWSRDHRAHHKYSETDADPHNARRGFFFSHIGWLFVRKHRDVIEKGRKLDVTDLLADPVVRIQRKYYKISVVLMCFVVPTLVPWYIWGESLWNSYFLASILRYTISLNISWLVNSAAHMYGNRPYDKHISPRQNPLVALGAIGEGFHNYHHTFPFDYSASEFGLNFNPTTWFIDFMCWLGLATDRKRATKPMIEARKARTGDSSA
Assay: Growth inhibition of yeast strain expressing human SCD5 as sole desaturase (OLE1 deleted), OD600 readout
Format: cell-based
Settings: yeast strain expressing human SCD5 as sole desaturase; growth (OD600) after 40 h at 30° C.; read-out: SCD5 IC50

query: Returns the measured IC50 for the input compound. Input: CN1N=C(C(=O)Nc2ccc(Cc3cccc(F)c3)nc2)CCC1=O
result: > 45 µM

query: I am curious: what IC50 value has been reported for CN1N=C(C(=O)Nc2cc(Cc3cccc(Cl)c3)cnc2N)CCC1=O ?
result: > 45 µM

query: Entry under review: Cn1nc(C(=O)Nc2ccc(OCc3cc(F)cc(C#N)c3)cn2)ccc1=O . Reported IC50?
result: > 45 µM

query: Consider the compound CN1C(=O)CCC1C(=O)Nc1ncc(Cc2cccc(F)c2)s1 (centres unmarked) and give its measured IC50.
result: > 45 µM

query: Consider the compound CN1N=C(C(=O)N(C)c2ncc(Cc3cccc(F)c3)s2)CCC1=O and give its measured IC50.
result: > 45 µM

query: Record request: IC50 value, item N#Cc1cnc(C(=O)Nc2ccc(Cc3cc(F)cc(Cl)c3)cn2)cn1
result: 0.01 µM

query: Name the recorded IC50 for CN1N=C(C(=O)Nc2ccnc(Cc3cccc(Cl)c3)c2)CCC1=O .
result: > 45 µM

query: Can you look up the measured IC50 of Cc1nccc(C(=O)Nc2ccc(Cc3cc(F)cc(C#N)c3)cn2)n1 for me?
result: 0.01 µM

query: What value of IC50 has been reported for the following compound? CN1N=C(C(=O)Nc2ncc(C(=O)c3cccc(F)c3)s2)CCC1=O
result: > 45 µM

query: Given the entry Cc1cnc(Cc2ccc(NC(=O)C3=NN(C)C(=O)CC3)nc2)s1 , report its measured IC50.
result: > 45 µM

query: Form field: reported IC50 of CN1N=C(C(=O)Nc2nc(Cc3cccc(F)c3)cs2)CCC1=O
result: > 45 µM
